All figures here come from patent US9624179B1.

Tested on: MDA-MB-468 (human breast cancer cell)
protocol-details: MTT inhibition of proliferation, MDA-MB-468
Assay type: cell-based
condition-set: Homo sapiens; MDA-MB-468, MTT, 48 h; read-out: Inhibitory Activity on the Proliferation of Tumor Cells (IC50 ± SD) MDA-MB-468

{"columns": ["molecule", "IC50 (µM)"],
 "data": [
  ["COc1cc2ncnc(Nc3ccc(NCc4ccc(F)cc4)cc3)c2cc1OCCN1CCCC1 [Compound 8]", 19.4]
]}

---

System: A549 (human non-small cell lung cancer cell)
protocol-details: MTT inhibition of proliferation, A549
Assay type: cell-based
condition-set: 48 h, read-out: Inhibitory Activity on the Proliferation of Tumor Cells (IC50 ± SD) A549
observable: IC50 (µM)

{"columns": ["molecule", "assayed-system", "observable", "result-number"],
 "data": [
  ["COc1cc2ncnc(Nc3ccc(NCc4ccc(F)cc4)cc3)c2cc1OCCN1CCCC1 [Compound 8]", "A549 (human non-small cell lung cancer cell)", "IC50", 5.66]
]}
